B1: RHOBTB3 (parent)
chain: STTEGIQLAKELGATYLELHSLDD

- Variants of: B1
- test.protocol: protein stability index of a GFP-peptide fusion (GPS, HEK-293T) (PSI 1-6); higher = more stable;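 also: lentivirally expressed fusions sorted by FACS into six bins by GFP to DsRed ratio, PSI derived from sequencing read proportions per bin multiplied by bin number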
- condition.context: c terminus: a fixed tail appended
quantity.kind: protein stability index

# annotated cases, reported protein stability index shown
sequence.variant: D23V
quantity.kind: protein stability index
value.observed: 2.29
--
sequence.variant: G13W
quantity.kind: protein stability index
value.observed: 1.39
--
sequence.variant: L12V
quantity.kind: protein stability index
value.observed: 4.43

Recorded result, S21Y , protein stability index: 1.59

Quick note, protein stability index for T15E landed at 4.87

For L19N the variant record lists protein stability index as 5

Recorded result, L17R , protein stability index: 3.94

Just so you know, measured protein stability index for G5M came out at 2.15

The variant E18V showed protein stability index equal to 2.38

Per the record, D24N has protein stability index of 2.16

Notebook: G13Y , protein stability index read as 1.42

// recorded protein stability index for T2Y : 2.37

Given item T3E , the value recorded as its protein stability index is 4.19
